target: SIRT1 (Homo sapiens); assay: Mass spectrometry based assay to identify modulators of SIRT1 activity (deacetylation of p53-based acetylated peptide substrate); assay type: biochemical; conditions: 25 min, SIRT1 activation, read-out: % FOLD ACT. (percent maximum fold activation)
MEASUREMENT_KIND: Emax

[
  {
    "COMPOUND": "Cc1cncc(NC(=O)N2CCCOc3ccc(-c4cccc(F)c4)nc32)c1",
    "TARGET_OR_SYSTEM": "SIRT1 (Homo sapiens)",
    "Emax": "> 200%"
  },
  {
    "COMPOUND": "O=C(Nc1ccncn1)N1CCOc2c(N3CCOCC3)nc(-c3cccc(F)c3)nc21",
    "TARGET_OR_SYSTEM": "SIRT1 (Homo sapiens)",
    "Emax": "≤ 200%"
  },
  {
    "COMPOUND": "Cc1cc(NC(=O)N2CC(C)(C)Oc3ccc(-c4cccc(N5CCCC5)c4)nc32)cc(C)n1",
    "TARGET_OR_SYSTEM": "SIRT1 (Homo sapiens)",
    "Emax": "> 200%"
  },
  {
    "COMPOUND": "O=C(Nc1cncc(F)c1)N1CCOc2ccc(-c3cccc(C(F)(F)F)c3)nc21",
    "TARGET_OR_SYSTEM": "SIRT1 (Homo sapiens)",
    "Emax": "> 200%"
  },
  {
    "COMPOUND": "CC1(C)CC(NC(=O)N2CCOc3ccc(-c4cccc(C(F)(F)F)c4)nc32)CC(C)(C)N1",
    "TARGET_OR_SYSTEM": "SIRT1 (Homo sapiens)",
    "Emax": "≤ 200%"
  },
  {
    "COMPOUND": "O=C(Nc1cccnc1)N1CCOc2ccc(-c3cccc(C(F)(F)F)c3)nc21",
    "TARGET_OR_SYSTEM": "SIRT1 (Homo sapiens)",
    "Emax": "> 200%"
  }
]

q: Bench note: what Emax did O=C(Nc1cccc(OCC(O)CO)n1)N1CCOc2ncc(-c3cccc(C(F)(F)F)c3)nc21 (centres unmarked) show?
a: > 200%

q: Bench note: what Emax did Cc1cc(C)nc(NC(=O)N2CCOc3ccc(-c4cccc(C(F)(F)F)c4)nc32)c1 show?
a: > 200%

q: Bench note: what Emax did Cc1cc(C)nc(NC(=O)N2CCCc3ccc(-c4cccc(F)c4)nc32)c1 show?
a: > 200%

q: Bench note: what Emax did Cc1noc(NC(=O)N2CCOc3ccc(-c4cccc(C(F)(F)F)c4)nc32)c1C show?
a: > 200%

q: Bench note: what Emax did CC1(C)CCN(C(=O)Nc2ccncc2)c2nc(-c3cccc(C(F)(F)F)c3)ccc21 show?
a: > 200%

---

Biological target: UniProtKB Q96EB6
Sequence (Q96EB6 1-747): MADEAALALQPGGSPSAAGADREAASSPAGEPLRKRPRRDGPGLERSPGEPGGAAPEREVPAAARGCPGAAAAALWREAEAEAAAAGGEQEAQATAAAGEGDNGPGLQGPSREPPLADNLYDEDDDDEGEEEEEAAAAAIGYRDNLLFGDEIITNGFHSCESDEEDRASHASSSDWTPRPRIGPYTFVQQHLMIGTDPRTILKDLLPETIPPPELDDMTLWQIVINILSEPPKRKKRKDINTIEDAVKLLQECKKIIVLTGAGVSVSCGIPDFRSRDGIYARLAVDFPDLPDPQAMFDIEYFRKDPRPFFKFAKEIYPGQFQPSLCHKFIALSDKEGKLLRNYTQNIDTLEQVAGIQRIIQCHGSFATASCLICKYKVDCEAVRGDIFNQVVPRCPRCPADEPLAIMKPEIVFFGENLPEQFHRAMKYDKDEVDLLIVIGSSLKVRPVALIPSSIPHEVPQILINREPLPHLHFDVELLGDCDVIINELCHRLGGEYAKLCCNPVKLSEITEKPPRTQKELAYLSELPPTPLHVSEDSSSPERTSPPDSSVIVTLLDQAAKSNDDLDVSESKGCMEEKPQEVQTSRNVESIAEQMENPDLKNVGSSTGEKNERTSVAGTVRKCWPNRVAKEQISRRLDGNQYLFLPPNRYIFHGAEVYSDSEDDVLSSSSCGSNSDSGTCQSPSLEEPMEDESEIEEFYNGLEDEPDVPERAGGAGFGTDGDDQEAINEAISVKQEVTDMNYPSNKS
Test: Mass spectrometry based assay to identify modulators of SIRT1 activity (deacetylation of p53-based acetylated peptide substrate)
Assay type: biochemical
Quick reference for EC1.5 (concentration giving 1.5-fold activation) among some compounds

[
  {
    "COMPOUND": "O=C(Nc1ncccn1)N1CCCOc2ccc(-c3cccc(Cl)c3)nc21 [Compound 865]",
    "RESULT": "1 to 25 µM"
  },
  {
    "COMPOUND": "O=C(Nc1cccnc1)N1CCOc2ccc(-c3cccc(C(F)(F)F)c3)nc21 [Compound 887]",
    "RESULT": "< 1 µM"
  },
  {
    "COMPOUND": "CC1(C)CCN(C(=O)Nc2ccccn2)c2nc(-c3cccc(Cl)c3)ccc2C1=O [Compound 783]",
    "RESULT": "> 25 µM"
  },
  {
    "COMPOUND": "CCN1C(=O)CCN(C(=O)Nc2ccccn2)c2nc(-c3cccc(Cl)c3)ccc21 [Compound 765]",
    "RESULT": "> 25 µM"
  },
  {
    "COMPOUND": "O=C(Nc1ccncc1F)N1CCOc2cnc(-c3cccc(C(F)(F)F)c3)nc21 [Compound 716]",
    "RESULT": "1 to 25 µM"
  },
  {
    "COMPOUND": "O=C(Nc1ccnc(OC[C@H](O)CO)n1)N1CCC(F)(F)c2ccc(-c3cccc(C(F)(F)F)c3)nc21 [Compound 825]",
    "RESULT": "< 1 µM"
  },
  {
    "COMPOUND": "CC1(C)CN(C(=O)Nc2ccccn2)c2nc(-c3cccc(F)c3)ccc2O1 [Compound 760]",
    "RESULT": "1 to 25 µM"
  }
]

Turning to the following compound.
q: # query: EC1.5 (concentration giving 1.5-fold activation) | item Cc1cnccc1NC(=O)N1CCCOc2ccc(-c3cccc(Cl)c3)nc21 [Compound 855] | system: UniProtKB Q96EB6
a: 1 to 25 µM

---

biological target: SIRT1 (Homo sapiens, UniProt Q96EB6); experiment: Mass spectrometry based assay to identify modulators of SIRT1 activity (deacetylation of p53-based acetylated peptide substrate); format: biochemical; conditions: 25 min, SIRT1 activation, read-out: % FOLD ACT. (percent maximum fold activation)
MEASUREMENT_KIND: Emax

Solved cases (3 shown):
[
  {
    "COMPOUND": "Cc1cc(NC(=O)N2CCOc3cnc(-c4cccc(C(F)(F)F)c4)nc32)cc(C)n1 [Compound 711]",
    "MEASUREMENT_KIND": "Emax",
    "RESULT": "> 200%"
  },
  {
    "COMPOUND": "Cc1cnc(NC(=O)N2CCCOc3ccc(-c4cccc(Cl)c4)nc32)s1 [Compound 704]",
    "MEASUREMENT_KIND": "Emax",
    "RESULT": "≤ 200%"
  },
  {
    "COMPOUND": "COc1cc(NC(=O)N2CCCOc3ccc(-c4cccc(Cl)c4)nc32)ccn1 [Compound 882]",
    "MEASUREMENT_KIND": "Emax",
    "RESULT": "> 200%"
  }
]

q: Bench note: what Emax did O=C(Nc1ccccn1)N1CCOc2ccc(-c3cccc(C(F)(F)F)c3)nc21 [Compound 502] show?
a: > 200%

---

molecular target: UniProt Q96EB6; test: Mass spectrometry based assay to identify modulators of SIRT1 activity (deacetylation of p53-based acetylated peptide substrate); format: biochemical
MEASUREMENT_KIND: EC1.5 (concentration giving 1.5-fold activation)

[
  {
    "COMPOUND": "O=C(Nc1ccnc(OCC(O)CO)n1)N1CCCOc2ccc(-c3cccc(Cl)c3)nc21 (stereo not shown)",
    "TARGET_OR_SYSTEM": "UniProt Q96EB6",
    "RESULT": "< 1000 nM"
  },
  {
    "COMPOUND": "Cc1cc(NC(=O)N2CCOc3cnc(-c4cccc(C(F)(F)F)c4)nc32)cc(C)n1",
    "TARGET_OR_SYSTEM": "UniProt Q96EB6",
    "RESULT": "< 1000 nM"
  }
]

q: Bench note: what EC1.5 (concentration giving 1.5-fold activation) did O=C(Nc1cccnn1)N1CCCOc2ccc(-c3cccc(Cl)c3)nc21 show?
a: 1000 to 25000 nM

q: Bench note: what EC1.5 (concentration giving 1.5-fold activation) did O=C(Nc1ccc2nccn2c1)N1CCCOc2ccc(-c3cccc(Cl)c3)nc21 show?
a: < 1000 nM

---

target: SIRT1 (Homo sapiens, UniProt Q96EB6); test: Mass spectrometry based assay to identify modulators of SIRT1 activity (deacetylation of p53-based acetylated peptide substrate); type: biochemical; settings: SIRT1 activation
MEASUREMENT_KIND: EC1.5

Solved cases (4 shown):
[
  {
    "COMPOUND": "O=C(Nc1ncccn1)N1CCCc2ccc(-c3cccc(F)c3)nc21",
    "RESULT": "B (EC1.5 1-25 μM)"
  },
  {
    "COMPOUND": "O=C(Nc1cc(C(F)(F)F)ccn1)N1CCOc2ccc(-c3cccc(C(F)(F)F)c3)nc21",
    "RESULT": "B (EC1.5 1-25 μM)"
  },
  {
    "COMPOUND": "O=C(Nc1ccncn1)N1CCCOc2ccc(-c3cccc(N4CCCC4)c3)nc21",
    "RESULT": "B (EC1.5 1-25 μM)"
  },
  {
    "COMPOUND": "Cc1cncc(NC(=O)N2CCOc3ccc(-c4cccc(N5CCCC5)c4)nc32)c1",
    "RESULT": "A (EC1.5<1.0 μM)"
  }
]

q: Bench note: what EC1.5 did O=C(Nc1ccnc(N2CCCC2)c1)N1CCCOc2ccc(-c3cccc(N4CCCC4)c3)nc21 show?
a: A (EC1.5<1.0 μM)

q: Bench note: what EC1.5 did CN1C(=O)CN(C(=O)Nc2cncnc2)c2nc(-c3cccc(C(F)(F)F)c3)ccc21 show?
a: B (EC1.5 1-25 μM)
